targetSystem: BRAF (Homo sapiens, UniProt P15056)
Construct: purchased Nanosyn (contract screening)
Sequence (P15056 whole entry): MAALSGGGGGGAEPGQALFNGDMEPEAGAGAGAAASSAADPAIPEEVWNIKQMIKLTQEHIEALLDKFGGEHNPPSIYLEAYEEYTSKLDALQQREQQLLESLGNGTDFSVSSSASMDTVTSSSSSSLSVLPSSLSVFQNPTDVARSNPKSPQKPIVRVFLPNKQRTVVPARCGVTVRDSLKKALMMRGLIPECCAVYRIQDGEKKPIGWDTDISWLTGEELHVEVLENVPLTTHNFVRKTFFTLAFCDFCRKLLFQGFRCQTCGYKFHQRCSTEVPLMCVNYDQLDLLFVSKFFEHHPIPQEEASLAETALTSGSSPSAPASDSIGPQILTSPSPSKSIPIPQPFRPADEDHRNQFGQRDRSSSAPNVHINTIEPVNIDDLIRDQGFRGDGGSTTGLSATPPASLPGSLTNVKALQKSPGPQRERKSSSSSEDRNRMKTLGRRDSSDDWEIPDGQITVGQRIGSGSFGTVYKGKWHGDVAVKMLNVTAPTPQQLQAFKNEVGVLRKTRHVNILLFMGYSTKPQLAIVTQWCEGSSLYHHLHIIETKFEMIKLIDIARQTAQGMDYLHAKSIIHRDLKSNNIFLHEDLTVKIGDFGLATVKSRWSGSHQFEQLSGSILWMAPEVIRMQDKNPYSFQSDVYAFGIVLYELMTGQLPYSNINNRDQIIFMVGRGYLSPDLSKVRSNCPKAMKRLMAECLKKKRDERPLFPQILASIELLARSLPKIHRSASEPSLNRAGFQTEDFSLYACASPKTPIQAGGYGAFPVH
experimentDescription: Kinase panel enzymatic inhibition assay (Nanosyn)
Assay type: biochemical
experimentalSetup: compound 5 μM; ATP at Km; 30-minute pre-incubation
propertyName: inhibition at 5 µM

Solved cases below.
>  <molecule>
Cc1ccc(NC(=O)c2cc([S+](C)[O-])n(-c3ccc(F)cc3)n2)cc1-c1cc(OCCO)nc(N2CCOCC2)c1 (stereo not shown) [Ex10]

>  <recordedResult>
≥ 95%

$$$$
>  <molecule>
CNC(=O)c1cc(Oc2ccc(NC(=O)c3cc(S(C)(=O)=O)n(-c4ccc(F)cc4)n3)c(F)c2)ccn1 [Ex17]

>  <recordedResult>
< 79%

$$$$
>  <molecule>
Cc1ccc(NC(=O)c2cc(S(C)(=O)=O)n(-c3ccc(F)cc3)n2)cc1-c1cc(OCCO)nc(N2CCOCC2)c1 [Ex9]

>  <recordedResult>
≥ 95%

$$$$

Now for another entry.
Entry Cc1ccc(NC(=O)c2cc([S+](C)[O-])n(-c3ccc(F)cc3)n2)cc1-c1cc(N2CCOCC2)c(=O)n(C)c1 (stereo not shown) [Ex11] , system BRAF (Homo sapiens, UniProt P15056): what inhibition at 5 µM was measured? ≥ 95%

* * *

Let's look at some compounds and their measured inhibition at 5 µM.
targetSystem: CSF1R (Homo sapiens)
Construct: purchased Nanosyn (contract screening)
Sequence (P07333 20-972): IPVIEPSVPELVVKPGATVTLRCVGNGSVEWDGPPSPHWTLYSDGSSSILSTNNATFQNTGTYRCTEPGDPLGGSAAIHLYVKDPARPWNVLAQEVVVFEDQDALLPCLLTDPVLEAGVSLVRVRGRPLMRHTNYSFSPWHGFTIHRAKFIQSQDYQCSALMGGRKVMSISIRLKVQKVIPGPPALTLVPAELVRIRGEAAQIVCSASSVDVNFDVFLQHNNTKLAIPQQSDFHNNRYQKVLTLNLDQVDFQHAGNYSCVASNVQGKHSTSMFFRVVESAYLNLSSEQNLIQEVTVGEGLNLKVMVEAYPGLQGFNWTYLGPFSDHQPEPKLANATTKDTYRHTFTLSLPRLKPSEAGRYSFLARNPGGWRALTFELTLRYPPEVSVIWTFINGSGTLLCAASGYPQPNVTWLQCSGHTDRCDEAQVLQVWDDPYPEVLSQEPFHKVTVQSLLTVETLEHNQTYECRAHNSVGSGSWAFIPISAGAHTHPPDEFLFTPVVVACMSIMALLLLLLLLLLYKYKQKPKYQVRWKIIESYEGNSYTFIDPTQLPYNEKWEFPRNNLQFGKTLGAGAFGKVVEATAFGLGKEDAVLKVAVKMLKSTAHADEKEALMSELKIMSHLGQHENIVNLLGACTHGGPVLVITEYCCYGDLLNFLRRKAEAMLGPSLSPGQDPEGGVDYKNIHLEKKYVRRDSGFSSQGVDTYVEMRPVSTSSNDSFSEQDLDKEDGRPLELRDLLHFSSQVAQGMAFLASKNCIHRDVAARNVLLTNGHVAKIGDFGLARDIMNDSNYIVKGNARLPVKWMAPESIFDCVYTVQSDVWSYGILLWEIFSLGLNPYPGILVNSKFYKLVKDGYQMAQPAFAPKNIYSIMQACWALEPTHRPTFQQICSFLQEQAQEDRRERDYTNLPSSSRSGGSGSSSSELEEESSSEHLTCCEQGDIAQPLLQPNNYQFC
experimentDescription: Kinase panel enzymatic inhibition assay (Nanosyn)
Type: biochemical
experimentalSetup: compound 5 μM; ATP at Km; 30-minute pre-incubation

See these solved cases before continuing.
>  <compound>
CSc1cc(C(=O)Nc2cc(Oc3ccnc(C(=O)NC4CNC4)c3)ccc2F)nn1-c1ccc(F)cc1

>  <targetSystem>
CSF1R (Homo sapiens)

>  <inhibition at 5 µM>
< 79%

$$$$
>  <compound>
Cc1ccc(NC(=O)c2cc([S+](C)[O-])n(-c3ccc(F)cc3)n2)cc1Nc1ccc2ncn(C)c(=O)c2c1 (stereo not shown)

>  <targetSystem>
CSF1R (Homo sapiens)

>  <inhibition at 5 µM>
< 79%

$$$$

Let's switch to this compound now.
Return reported inhibition at 5 µM; argument: `Cc1ccc(NC(=O)c2cc(S(C)(=O)=O)n(-c3ccc(F)cc3)n2)cc1-c1cc(OCCO)nc(N2CCOCC2)c1` < 79%

* * *

targetSystem: TAK1-TAB1 (Homo sapiens)
Sequence (O43318 with tags, fused parts or gaps limits assumed): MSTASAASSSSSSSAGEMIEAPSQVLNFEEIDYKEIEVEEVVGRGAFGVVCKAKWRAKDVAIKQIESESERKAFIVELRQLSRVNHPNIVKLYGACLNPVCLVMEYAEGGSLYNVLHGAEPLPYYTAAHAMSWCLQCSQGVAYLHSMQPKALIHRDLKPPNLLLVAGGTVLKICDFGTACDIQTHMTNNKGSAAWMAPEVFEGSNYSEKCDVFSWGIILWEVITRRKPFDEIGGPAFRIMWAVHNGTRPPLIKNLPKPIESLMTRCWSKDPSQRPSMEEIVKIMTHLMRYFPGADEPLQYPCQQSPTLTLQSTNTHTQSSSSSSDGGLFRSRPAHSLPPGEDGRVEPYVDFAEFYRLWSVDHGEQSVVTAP
propertyName: IC50

Quick check: IC50 on TAK1-TAB1 (Homo sapiens), item `COc1cc2nccc(Oc3ccc(NC(=O)c4cc(S(C)(=O)=O)n(-c5ccc(F)cc5)n4)cc3)c2cc1OC` ? ≥ 10 µM
